Please provide measured IC50 for the entries that follow.
- MEASURED TARGET: PI3K β (p110β/p85α)(h) (Homo sapiens)
- Sequence (P42338 whole entry): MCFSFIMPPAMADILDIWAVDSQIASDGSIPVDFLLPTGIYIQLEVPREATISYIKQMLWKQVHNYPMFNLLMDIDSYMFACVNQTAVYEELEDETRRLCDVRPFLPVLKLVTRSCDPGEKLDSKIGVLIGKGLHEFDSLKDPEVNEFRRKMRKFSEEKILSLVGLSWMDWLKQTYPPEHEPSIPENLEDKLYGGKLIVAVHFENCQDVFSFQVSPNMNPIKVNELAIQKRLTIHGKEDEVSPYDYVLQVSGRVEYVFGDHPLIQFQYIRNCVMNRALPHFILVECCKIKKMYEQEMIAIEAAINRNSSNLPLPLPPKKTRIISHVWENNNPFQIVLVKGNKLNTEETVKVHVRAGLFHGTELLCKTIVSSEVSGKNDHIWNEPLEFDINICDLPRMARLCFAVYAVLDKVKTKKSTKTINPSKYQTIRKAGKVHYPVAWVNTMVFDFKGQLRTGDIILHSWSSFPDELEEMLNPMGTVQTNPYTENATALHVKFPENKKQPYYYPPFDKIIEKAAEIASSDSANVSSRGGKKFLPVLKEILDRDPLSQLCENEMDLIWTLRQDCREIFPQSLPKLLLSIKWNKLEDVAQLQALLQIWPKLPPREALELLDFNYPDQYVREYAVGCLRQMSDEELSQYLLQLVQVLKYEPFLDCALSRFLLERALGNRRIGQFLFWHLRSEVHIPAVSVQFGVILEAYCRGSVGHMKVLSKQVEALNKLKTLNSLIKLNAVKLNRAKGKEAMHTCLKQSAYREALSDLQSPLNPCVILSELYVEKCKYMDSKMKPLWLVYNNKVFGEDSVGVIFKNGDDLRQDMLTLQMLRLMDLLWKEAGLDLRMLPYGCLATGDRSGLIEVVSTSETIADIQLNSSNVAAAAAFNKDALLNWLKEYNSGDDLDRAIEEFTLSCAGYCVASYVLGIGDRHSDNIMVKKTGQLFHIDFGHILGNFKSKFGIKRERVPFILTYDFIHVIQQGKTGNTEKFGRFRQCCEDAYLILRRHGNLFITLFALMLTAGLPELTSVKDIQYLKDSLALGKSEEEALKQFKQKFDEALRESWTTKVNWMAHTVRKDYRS
- Sequence (P27986 whole entry partner): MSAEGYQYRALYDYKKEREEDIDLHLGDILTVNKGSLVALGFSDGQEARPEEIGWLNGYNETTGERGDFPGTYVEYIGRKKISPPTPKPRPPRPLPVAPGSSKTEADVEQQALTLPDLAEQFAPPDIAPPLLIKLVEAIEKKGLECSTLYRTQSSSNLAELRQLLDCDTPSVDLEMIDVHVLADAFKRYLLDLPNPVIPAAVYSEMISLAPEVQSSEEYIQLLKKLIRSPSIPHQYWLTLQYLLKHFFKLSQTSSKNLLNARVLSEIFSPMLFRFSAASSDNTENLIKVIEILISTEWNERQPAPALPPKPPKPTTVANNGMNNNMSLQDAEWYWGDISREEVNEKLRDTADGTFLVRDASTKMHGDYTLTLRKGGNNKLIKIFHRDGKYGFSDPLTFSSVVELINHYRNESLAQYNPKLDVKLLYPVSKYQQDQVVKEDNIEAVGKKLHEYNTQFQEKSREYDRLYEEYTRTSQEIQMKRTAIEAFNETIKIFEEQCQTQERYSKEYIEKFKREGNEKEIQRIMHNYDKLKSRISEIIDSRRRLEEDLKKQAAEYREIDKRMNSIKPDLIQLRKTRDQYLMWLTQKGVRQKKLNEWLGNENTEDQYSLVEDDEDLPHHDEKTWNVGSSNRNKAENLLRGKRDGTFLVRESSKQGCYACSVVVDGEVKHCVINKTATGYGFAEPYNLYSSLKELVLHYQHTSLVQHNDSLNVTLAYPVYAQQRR
- METHOD: Assay for phosphatidylinositol 3-kinase beta (PI3Kβ) activity, PI3K-HTRF kit
- Assay type: biochemical
- RECORDED CONDITIONS: TR-FRET; enzyme 0.725 μg/ml, 10 μM PIP2, 10 μM ATP
Answers are plain numbers, in nM.

So, `CN(C)S(=O)(=O)c1ccc(-c2cncc3cc(/C=C4\SC(=S)NC4=O)oc23)cc1OC(F)(F)F` ? Its IC50 was 443

So, `COc1ccc(-c2cncc3cc(/C=C4\SC(=O)NC4=O)oc23)cn1` ? Its IC50 was 1370

So, `O=C1NC(=S)S/C1=C\c1cc2cncc(-c3ccc(F)nc3)c2o1` ? Its IC50 was 115

// each molecule listed below needs its IC50
1. Cc1ccccc1C#Cc1cncc2cc(/C=C3\SC(=O)NC3=O)oc12
2. COC(=O)c1ccc(C#Cc2cncc3cc(/C=C4\SC(=O)NC4=O)oc23)cc1
3. CC(C)c1ccccc1C#Cc1cncc2cc(/C=C3\SC(=S)NC3=O)oc12
4. CS(=O)(=O)c1ccc(-c2cncc3cc(/C=C4\SC(=O)NC4=O)oc23)cc1

OUTPUT:
466
1390
8620
177

---

- MEASURED TARGET: PI3Kγ (p120γ)(h) (Homo sapiens, UniProt P48736)
- Sequence (P48736 whole entry): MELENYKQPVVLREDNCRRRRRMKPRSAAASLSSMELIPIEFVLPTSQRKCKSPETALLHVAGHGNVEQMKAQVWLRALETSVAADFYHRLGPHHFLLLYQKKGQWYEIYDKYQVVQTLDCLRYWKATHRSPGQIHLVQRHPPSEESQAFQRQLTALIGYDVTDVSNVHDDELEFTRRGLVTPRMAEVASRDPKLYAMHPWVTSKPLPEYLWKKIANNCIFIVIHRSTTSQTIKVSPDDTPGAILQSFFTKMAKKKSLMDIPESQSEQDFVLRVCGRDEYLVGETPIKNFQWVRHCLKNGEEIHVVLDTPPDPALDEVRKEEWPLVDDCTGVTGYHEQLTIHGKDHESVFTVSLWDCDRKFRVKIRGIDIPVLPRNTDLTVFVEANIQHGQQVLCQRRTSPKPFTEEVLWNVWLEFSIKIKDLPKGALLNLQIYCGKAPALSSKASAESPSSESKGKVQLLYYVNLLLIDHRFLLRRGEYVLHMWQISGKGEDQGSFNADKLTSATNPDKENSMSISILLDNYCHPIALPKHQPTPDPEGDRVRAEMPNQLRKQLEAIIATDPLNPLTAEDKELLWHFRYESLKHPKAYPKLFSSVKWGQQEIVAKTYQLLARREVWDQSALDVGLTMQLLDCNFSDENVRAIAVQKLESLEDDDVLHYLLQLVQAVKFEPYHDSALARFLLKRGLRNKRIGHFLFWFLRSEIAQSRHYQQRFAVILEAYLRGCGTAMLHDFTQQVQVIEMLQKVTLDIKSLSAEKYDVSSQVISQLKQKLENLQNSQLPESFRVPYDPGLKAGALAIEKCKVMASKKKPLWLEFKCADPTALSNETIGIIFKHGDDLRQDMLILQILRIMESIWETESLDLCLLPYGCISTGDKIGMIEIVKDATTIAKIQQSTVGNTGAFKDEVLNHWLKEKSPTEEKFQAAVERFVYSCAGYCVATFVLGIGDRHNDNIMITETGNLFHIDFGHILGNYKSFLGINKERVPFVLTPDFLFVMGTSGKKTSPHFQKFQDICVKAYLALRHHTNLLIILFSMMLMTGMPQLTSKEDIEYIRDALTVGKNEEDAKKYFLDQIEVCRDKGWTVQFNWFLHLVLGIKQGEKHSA
- METHOD: Assay for phosphatidylinositol 3-kinase gamma (PI3Kγ) activity, PI3K-HTRF kit
- Assay type: biochemical
- RECORDED CONDITIONS: TR-FRET; enzyme 1.45 μg/ml, 10 μM PIP2, 10 μM ATP
So basically: is IC50 under 20 nM? Then 1. Not under? Then 0.

Some entries whose results are on file:
INPUT: Is IC50 strictly under 20 nM for the entry `CN(C)S(=O)(=O)c1ccc(C#Cc2cncc3cc(/C=C4\SC(=S)NC4=O)oc23)cc1` ?
OUTPUT: 1

INPUT: Is IC50 strictly under 20 nM for the entry `COc1ccccc1C#Cc1cncc2cc(/C=C3\SC(=S)NC3=O)oc12` ?
OUTPUT: 1

***
INPUT: Is IC50 strictly under 20 nM for the entry `O=C1NC(=S)S/C1=C\c1cc2cncc(C#Cc3ccsc3)c2o1` ?
OUTPUT: 1

INPUT: Is IC50 strictly under 20 nM for the entry `N#Cc1ccccc1C#Cc1cncc2cc(/C=C3\SC(=S)NC3=O)oc12` ?
OUTPUT: 1

INPUT: Is IC50 strictly under 20 nM for the entry `O=C1NC(=O)/C(=C/c2cc3cncc(-c4cccc(OCC(F)(F)F)c4)c3o2)S1` ?
OUTPUT: 0

---

Please provide measured IC50 for the entries that follow.
- MEASURED TARGET: PI3K β (p110β/p85α)(h) (Homo sapiens)
- METHOD: Assay for phosphatidylinositol 3-kinase beta (PI3Kβ) activity, PI3K-HTRF kit
- Assay type: biochemical
- RECORDED CONDITIONS: TR-FRET; enzyme 0.725 μg/ml, 10 μM PIP2, 10 μM ATP
Answers are plain numbers, in nM.

The cases that follow already have their IC50 on record.
So, O=C1NC(=O)/C(=C/c2cc3cncc(C#Cc4ccsc4)c3o2)S1 [Example 528] ? Its IC50 was 638

So, COc1ccc(-c2cncc3cc(/C=C4\SC(=O)NC4=O)oc23)cc1C(F)(F)F [Example 90] ? Its IC50 was 3570

So, CNS(=O)(=O)c1ccc(-c2cncc3cc(/C=C4\SC(=O)NC4=O)oc23)cc1F [Example 279] ? Its IC50 was 480

// each compound listed below needs its IC50
1. Nc1ccc(-c2cncc3cc(/C=C4\SC(=S)NC4=O)oc23)cc1C(F)(F)F [Example 361]
2. COc1cc(C#Cc2cncc3cc(/C=C4\SC(=O)NC4=O)oc23)cc(OC)c1 [Example 450]
3. CN(C)S(=O)(=O)c1ccc(C#Cc2cncc3cc(/C=C4\SC(=S)NC4=O)oc23)cc1 [Example 571]
4. COc1ccc(C#Cc2cncc3cc(/C=C4\SC(=O)NC4=O)oc23)cc1OC [Example 469]

OUTPUT:
1. 1430
2. 4650
3. 2410
4. 5090
